IC50 values for Bcl-2-related protein A1 (Mus musculus), compiled from several publications.
- target_or_test_system: Bcl-2-related protein A1 (Mus musculus)
- Sequence (Q07440 whole entry): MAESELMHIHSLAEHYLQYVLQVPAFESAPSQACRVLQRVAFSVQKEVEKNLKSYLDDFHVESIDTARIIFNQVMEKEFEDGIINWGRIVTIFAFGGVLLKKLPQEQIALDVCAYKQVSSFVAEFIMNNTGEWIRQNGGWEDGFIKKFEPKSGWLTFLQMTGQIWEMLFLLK

# count of solved cases: 8
compound="C#CCOCCOCCOCCNc1nc(N2CCN(C(=O)[C@H](Cc3cc4ccccc4[nH]3)n3cc([C@@H](N)C(C)CC)nn3)CC2)nc(N2CCN(C(=O)[C@H](Cc3cc4ccccc4[nH]3)n3cc([C@@H](N)Cc4ccc(O)cc4)nn3)CC2)n1 (stereo partly specified)" measurement="11.7 µM"
compound=C#CCOCCOCCOCCNc1nc(N2CCN(C(=O)CCCCCCCCCCNC(=O)[C@@H](CCC(=O)O)n3cc(CCCCCN)nn3)CC2)nc(N2CCN(C(=O)CCCCCCCCCCNC(=O)[C@H]([C@@H](C)CC)n3cc(CCCCCN)nn3)CC2)n1 measurement="> 20 µM"
compound=C#CCOCCOCCOCCNc1nc(N2CCN(C(=O)CCCCCCCCCCNC(=O)[C@H](CCCCN)n3cc(C)nn3)CC2)nc(N2CCN(C(=O)CCCCCCCCCCNC(=O)[C@H](CCCN=C(N)N)n3cc(C[C@@H](C)CC)nn3)CC2)n1 measurement="6.58 µM"
compound=CCNC(=S)NNC1=c2cc(C(C)C)ccc2=NC1=O measurement="> 20 µM"
compound="Cc1ccc(N=C2C(=O)N(c3ccc(C)cc3)C(=O)C2Cl)cc1 (stereo unspecified)" measurement="1.7 µM"
compound="C#CCOCCOCCOCCNc1nc(N2CCN(C(=O)[C@H](CCCCN)n3cc([C@@H](N)C(C)CC)nn3)CC2)nc(N2CCN(C(=O)[C@H](Cc3ccc(O)cc3)n3cc([C@@H](N)C(C)CC)nn3)CC2)n1 (stereo partly specified)" measurement="> 20 µM"
compound="CCOC(=O)c1c(C)c2c(n1C)CCCC2N=O (stereo unspecified)" measurement="> 20 µM"
compound=CCCCNC(=S)N/N=C1\C(=O)Nc2ccccc21 measurement="> 20 µM"

# get_value(readout='IC50', item= COCC=Nc1c(Cl)c(O)n(-c2ccc(Cl)c(Cl)c2)c1O )
12.6 µM

Look up IC50 for this compound: Cc1cccc(NC(=S)NNC2=c3ccccc3=NC2=O)c1
> 20 µM

Would you kindly share the measured IC50 for Cc1ccc(C2C3CN(C(C)C)CCC3=C(C#N)C(=N)C2(C#N)C#N)cc1 (stereo unspecified) ?
> 100 µM

Fill in: IC50 of C#CCOCCOCCOCCNc1nc(N2CCN(C(=O)[C@H](CCCCN)n3cc([C@@H](N)CC(C)C)nn3)CC2)nc(N2CCN(C(=O)[C@H](Cc3cc4ccccc4[nH]3)n3cc([C@@H](N)Cc4ccc(O)cc4)nn3)CC2)n1 is ___
> 20 µM

# lookup: IC50 of C#CCOCCOCCOCCNc1nc(N2CCN(C(=O)[C@H](CCCN=C(N)N)n3cc(C(N)[C@H](C)CC)nn3)CC2)nc(N2CCN(C(=O)[C@H](CCCN=C(N)N)n3cc(C(N)[C@@H](C)CC)nn3)CC2)n1 (stereo partly specified)
> 20 µM
